# TARGET OR SYSTEM: BRD4 BD2 (Homo sapiens, UniProt O60885, Y97A)
# Construct: BRD4 (1-477) (Y97A) and (Y390A); made in house; host or cells: E. coli (pET15b vector)
# ASSAY SUMMARY: TR-FRET competition assay, BRD4 BD2 (single mutant tandem bromodomain protein)
# Type: binding
# REPORTED CONDITIONS: TR-FRET competition with Reference Compound X; values exemplary only; read-out: pIC50 in the BRD4 BD2 assay (converted)
REPORTED PROPERTY: IC50 (µM)

{"COMPOUND": "CNC(=O)c1cc(C(=O)NCC[C@H]2CNCCO2)cc(C(C)c2ccccc2)n1 (single isomer, unassigned)", "IC50, µM": 0.0398}
{"COMPOUND": "CNC(=O)c1cc(C(=O)N[C@H]2[C@@H]3COC[C@@H]32)cc(Cc2cccc3c2CCN3)n1", "IC50, µM": 0.0501}

----------
# TARGET OR SYSTEM: BRD4 BD2 (Homo sapiens, UniProt O60885, Y97A)
# Construct: BRD4 (1-477) (Y97A) and (Y390A); made in house; host or cells: E. coli (pET15b vector)
# ASSAY SUMMARY: TR-FRET competition assay, BRD4 BD2 (single mutant tandem bromodomain protein)
# Format: binding
# REPORTED CONDITIONS: TR-FRET competition with Reference Compound X; values exemplary only; read-out: pIC50 in the BRD4 BD2 assay (converted)
# Protocol: Time Resolved Fluorescence Resonance Energy Transfer (TR-FRET) Assay Bromodomain binding was assessed utilising a time resolved fluorescent resonance energy transfer (TR-FRET) competition assay. […] The competition of the compounds of formula (I) with Reference Compound X for binding to the BET family (BRD2, BRD3, BRD4 and BRDT) was assessed using protein truncates spanning both bromodomain 1 (BD1) and bromodomain 2 (BD2). […]
REPORTED PROPERTY: IC50

These solved cases illustrate the format of a correct answer.
{"COMPOUND": "CNC(=O)c1cc(C(=O)NCC2CCCO2)cc(Cc2ccccc2)n1 (racemic) [Example 84]", "ASSAY RESULT": "1 to 10 µM"}
{"COMPOUND": "CNC(=O)c1cc(C(=O)N[C@H]2[C@@H]3COC[C@@H]32)cc([C@@H](CF)c2ccccc2)n1 (single isomer, unassigned) [Example 165]", "ASSAY RESULT": "1 to 10 µM"}
{"COMPOUND": "CNC(=O)c1cc(C(=O)NCC2CCCCO2)cc(Cc2ccccc2)n1 (racemic) [Example 85]", "ASSAY RESULT": "1 to 10 µM"}

Name the recorded IC50 of the compound listed here: CNC(=O)c1cc(C(=O)N[C@H]2[C@@H]3COC[C@@H]32)cc(C(CF)c2ccccc2)n1 (mixture of isomers) [Example 164]
1 to 10 µM

The measured values listed here are drawn from patent US10934272B2.
